Tested on: Arachidonate 12-lipoxygenase, platelet type (Homo sapiens)
Assay: Inhibition of LOX12 by human platelet assay
Design: concentration or dose not given beside the values
Settings: concentration not given here
readout_kind: inhibition

- molecule: "CC(=O)OCC(OC(C)=O)C(OC(C)=O)C(Cn1c2nc(=O)n(CCCOC(=O)C(C)c3ccc(CC(C)C)cc3)c(=O)c-2nc2cc(C)c(C)cc21)OC(C)=O (stereo not given)"
  test_value: "< 11%"
- molecule: "CC(=O)OCC(OC(C)=O)C(OC(C)=O)C(Cn1c2nc(=O)n(CCCCOC(=O)C(C)c3ccc(CC(C)C)cc3)c(=O)c-2nc2cc(C)c(C)cc21)OC(C)=O (stereo not given)"
  test_value: "< 11%"
- molecule: "CC(=O)OCC(OC(C)=O)C(OC(C)=O)C(Cn1c2nc(=O)n(CCCCCOC(=O)C(C)c3ccc(CC(C)C)cc3)c(=O)c-2nc2cc(C)c(C)cc21)OC(C)=O (stereo not given)"
  test_value: "< 11%"

In: Please report inhibition for the following molecule: CC(=O)OCC(OC(C)=O)C(OC(C)=O)C(Cn1c2nc(=O)n(CCOC(=O)C(C)c3ccc(CC(C)C)cc3)c(=O)c-2nc2cc(C)c(C)cc21)OC(C)=O (stereo not given)
Out: < 11%

In: Please report inhibition for the following molecule: CC(=O)OCC(OC(C)=O)C(OC(C)=O)C(Cn1c2nc(=O)n(COC(=O)C(C)c3ccc(CC(C)C)cc3)c(=O)c-2nc2cc(C)c(C)cc21)OC(C)=O (stereo not given)
Out: < 11%

----------
Molecular target: Prostaglandin G/H synthase 1 (Homo sapiens) (UniProt P23219)
Sequence (P23219 whole entry): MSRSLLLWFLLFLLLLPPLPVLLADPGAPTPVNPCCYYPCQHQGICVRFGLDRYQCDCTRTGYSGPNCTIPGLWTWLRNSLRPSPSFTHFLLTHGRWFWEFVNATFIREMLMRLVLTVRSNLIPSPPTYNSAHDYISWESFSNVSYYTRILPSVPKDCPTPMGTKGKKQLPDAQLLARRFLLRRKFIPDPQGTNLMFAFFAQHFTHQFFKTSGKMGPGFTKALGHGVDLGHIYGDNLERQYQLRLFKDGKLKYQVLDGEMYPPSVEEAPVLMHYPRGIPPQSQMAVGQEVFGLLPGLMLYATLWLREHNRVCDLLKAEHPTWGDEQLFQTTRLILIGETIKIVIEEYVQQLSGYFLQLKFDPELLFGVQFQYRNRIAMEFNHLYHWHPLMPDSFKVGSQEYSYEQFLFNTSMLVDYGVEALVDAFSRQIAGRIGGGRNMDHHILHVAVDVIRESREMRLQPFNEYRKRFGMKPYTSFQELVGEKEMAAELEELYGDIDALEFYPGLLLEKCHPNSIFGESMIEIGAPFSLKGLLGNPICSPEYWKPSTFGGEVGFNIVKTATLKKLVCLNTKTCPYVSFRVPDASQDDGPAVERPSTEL
Assay: Inhibition of COX1 by human platelet assay
Set-up: concentration or dose not given beside the values
Settings: concentration not given here
readout_kind: inhibition
Please give the number followed by its unit.

- compound: "CC(=O)OCC(OC(C)=O)C(OC(C)=O)C(Cn1c2nc(=O)n(COC(=O)C(C)c3ccc(CC(C)C)cc3)c(=O)c-2nc2cc(C)c(C)cc21)OC(C)=O (stereo not drawn)"
  inhibition: "15%"

In: Please report inhibition for the following compound: CC(=O)OCC(OC(C)=O)C(OC(C)=O)C(Cn1c2nc(=O)n(CCCCCOC(=O)C(C)c3ccc(CC(C)C)cc3)c(=O)c-2nc2cc(C)c(C)cc21)OC(C)=O (stereo not drawn)
Out: 43%

In: Please report inhibition for the following compound: CC(=O)OCC(OC(C)=O)C(OC(C)=O)C(Cn1c2nc(=O)n(CCOC(=O)C(C)c3ccc(CC(C)C)cc3)c(=O)c-2nc2cc(C)c(C)cc21)OC(C)=O (stereo not drawn)
Out: 15%

----------
As shown below, each of these compounds has a reported inhibition value.
Molecular target: Prostaglandin G/H synthase 1 (Homo sapiens) (UniProt P23219)
Experiment: Inhibition of COX1 by human platelet assay
Parameters: concentration or dose not given beside the values
Details: concentration not given here
Please give the number followed by its unit.

Solved cases (2 shown):
- compound: "CC(=O)OCC(OC(C)=O)C(OC(C)=O)C(Cn1c2nc(=O)n(CCCCOC(=O)C(C)c3ccc(CC(C)C)cc3)c(=O)c-2nc2cc(C)c(C)cc21)OC(C)=O (stereo not drawn)"
  inhibition: "37%"
- compound: "CC(=O)OCC(OC(C)=O)C(OC(C)=O)C(Cn1c2nc(=O)n(CCCOC(=O)C(C)c3ccc(CC(C)C)cc3)c(=O)c-2nc2cc(C)c(C)cc21)OC(C)=O (stereo not drawn)"
  inhibition: "15%"

Then there is this compound:
In: Specify inhibition for CC(C)Cc1ccc([C@H](C)C(=O)O)cc1 [DEXIBUPROFEN] , system Prostaglandin G/H synthase 1 (Homo sapiens) (UniProt P23219).
Out: 90%
